- assay_procedure: Cytotoxicity against human QBC939 cells assessed as decrease in cell viability after 24 hrs by MTT assay
- Assay type: functional, cell-based
- reported_conditions: QBC939, 24 h
recorded_endpoint: IC50
Please append the unit to your numeric answer.

{"columns": ["query_smiles", "IC50"],
 "data": [
  ["O=c1[nH]cc(F)c(=O)[nH]1", "16.1 µM"]
]}

Moving on to the next compound.
**Q:** Report IC50 for C=CCc1cc(/C=C2\CSC/C(=C\c3ccc(O)c(CC=C)c3)C2=O)ccc1O
**A:** 9.3 µM

###

- assay_procedure: Cytotoxicity against RBEC assessed as decrease in cell viability after 24 hrs by MTT assay
- Type: toxicity
- reported_conditions: rat, RBEC cells
The entries below are paired with their reported IC50 at 24 h.
Give your result in µM as a bare value.

{"columns": ["compound", "unit_string", "IC50 at 24 h"],
 "data": [
  ["C=CCc1cc(/C=C2\\COC/C(=C\\c3ccc(O)c(CC=C)c3)C2=O)ccc1O", "µM", 15],
  ["C=CCc1cc(/C=C2\\CN(C3CC3)C/C(=C\\c3ccc(O)c(CC=C)c3)C2=O)ccc1O", "µM", 14.4],
  ["C=CCc1cc(/C=C2\\CC/C(=C\\c3ccc(O)c(CC=C)c3)C2=O)ccc1O", "µM", 10.7]
]}

**Q:** Could you please provide reported IC50 at 24 h for O=c1[nH]cc(F)c(=O)[nH]1 [FLUOROURACIL] ? Thanks!
**A:** 19.3

###

- assay_procedure: Drug degradation in phosphate buffer at pH 7.4 measured up to 25 mins by UV-Vis spectral analysis
- Assay type: physicochemical
- reported_conditions: phosphate buffer, pH 7.4; read-out: Drug degradation
recorded_endpoint: degraded at 25 min
Your answer should be a number followed by the unit of measure.

**Q:** Input COc1cc(/C=C/C(=O)CC(=O)/C=C/c2ccc(O)c(OC)c2)ccc1O , output reported degraded at 25 min.
**A:** 50%

###

- assay_procedure: Cytotoxicity against HIBEC assessed as decrease in cell viability after 24 hrs by MTT assay
- Type: toxicity
- reported_conditions: human, HIBEC cells
recorded_endpoint: IC50 at 24 h (µM)
Give just the numeric value; µM need not be written.

**Q:** Hello, please tell me recorded IC50 at 24 h for this one: C=CCc1cc(/C=C2\CSC/C(=C\c3ccc(O)c(CC=C)c3)C2=O)ccc1O
**A:** 9.8
